Each entry below carries its recorded pIC50.
# Measurement target: human SMINT (Homo sapiens, UniProt Q2M3M2)
# Sequence (Q2M3M2 whole entry): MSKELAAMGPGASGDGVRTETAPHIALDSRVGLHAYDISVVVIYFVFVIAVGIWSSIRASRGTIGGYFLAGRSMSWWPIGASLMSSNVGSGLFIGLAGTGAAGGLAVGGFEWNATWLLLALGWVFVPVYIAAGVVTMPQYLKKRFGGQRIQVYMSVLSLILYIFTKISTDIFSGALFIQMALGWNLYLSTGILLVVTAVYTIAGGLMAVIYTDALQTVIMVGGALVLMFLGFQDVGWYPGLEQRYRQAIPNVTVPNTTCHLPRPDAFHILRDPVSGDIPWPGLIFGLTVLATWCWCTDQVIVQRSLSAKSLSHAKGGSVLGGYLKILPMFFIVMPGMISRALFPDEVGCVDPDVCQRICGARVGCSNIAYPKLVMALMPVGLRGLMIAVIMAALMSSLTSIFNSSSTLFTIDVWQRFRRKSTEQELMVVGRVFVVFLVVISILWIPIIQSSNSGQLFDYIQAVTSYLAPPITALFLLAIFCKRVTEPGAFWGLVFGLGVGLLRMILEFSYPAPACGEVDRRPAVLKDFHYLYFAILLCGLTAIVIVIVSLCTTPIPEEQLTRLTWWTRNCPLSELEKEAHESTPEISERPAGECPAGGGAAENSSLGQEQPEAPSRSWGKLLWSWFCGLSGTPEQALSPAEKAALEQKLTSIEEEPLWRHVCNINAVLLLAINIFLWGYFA
# Assay explanation: Confirmatory test for inhibitory activity on human SMINT (methyl-α-D-glucopyranoside uptake in transiently expressing COS-7 cells)
# Assay context: COS-7 cells transiently expressing human SMINT; 1 mM α-MG; 1 hour, 37° C.; read-out: IC50 value (concentration inhibiting α-MG uptake by 50%)
Notebook: values listed as pIC50 are -log10 of the concentration (mol/L).

> print(dat)
                                   compound  recorded.measurement
1  COc1ccc(Cc2c(O[C@@H]3O[C@H](CO)[C@@H](O)[C@H](O)[C@H]3O)nn(C(C)C)c2Oc2ccccc2)cc1 [Example 1]                  6.15

Turning now to a further compound:
Lookup: // pIC50 lookup, key: COc1ccc(Cc2c(O[C@@H]3O[C@H](CO)[C@@H](O)[C@H](O)[C@H]3O)nn(C(C)C)c2-n2cccn2)c(OC)c1 [Example 4]
Found: 6.05
